Target sequence: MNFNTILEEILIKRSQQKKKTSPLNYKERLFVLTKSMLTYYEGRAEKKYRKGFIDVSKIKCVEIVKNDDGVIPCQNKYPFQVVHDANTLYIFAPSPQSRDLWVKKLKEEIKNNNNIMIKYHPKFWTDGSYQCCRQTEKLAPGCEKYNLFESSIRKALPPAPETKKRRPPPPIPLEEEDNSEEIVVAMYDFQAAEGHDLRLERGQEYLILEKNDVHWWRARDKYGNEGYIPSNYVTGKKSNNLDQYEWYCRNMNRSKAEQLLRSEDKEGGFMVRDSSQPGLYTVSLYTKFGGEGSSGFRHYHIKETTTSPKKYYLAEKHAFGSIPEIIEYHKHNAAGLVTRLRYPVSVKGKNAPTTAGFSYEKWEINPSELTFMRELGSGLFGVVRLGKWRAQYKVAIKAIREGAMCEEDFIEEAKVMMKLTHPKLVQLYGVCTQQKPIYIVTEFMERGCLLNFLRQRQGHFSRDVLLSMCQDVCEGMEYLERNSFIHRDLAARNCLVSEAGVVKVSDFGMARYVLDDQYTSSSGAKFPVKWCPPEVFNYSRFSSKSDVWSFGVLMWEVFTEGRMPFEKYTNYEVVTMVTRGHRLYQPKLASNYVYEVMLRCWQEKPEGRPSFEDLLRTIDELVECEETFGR
Below: a set of entries, each annotated with reported IC50.

# Molecule, IC50
data = [
    ("CC(C)(C)c1noc(C(=O)NCc2ccc(-c3ccnc4[nH]nc(N5CCC(NC(=O)c6ccccc6)CC5)c34)cc2F)n1 [Example 208]", "1710 nM"),
    ("COC(=O)N1C[C@H](Nc2n[nH]c3nccc(-c4ccc(CNC(=O)c5nc(C(C)(C)C)no5)c(F)c4)c23)CC[C@@H]1C [Example 410]", "542 nM"),
    ("CC(C)(C)c1noc(C(=O)NCc2ccc(-c3ccnc4[nH]nc(OC5CCNC5)c34)cc2F)n1 (centres unmarked) [Example 283]", "7160 nM"),
    ("O=c1c2c(F)cc(C3CC3)cc2ccn1-c1cccc(-c2ccnc3[nH]nc(N[C@@H]4CCNC4)c23)c1CO [Compound 17]", "5920 nM"),
    ("CC(C)(C)c1nc(C(=O)NC2(c3ccc(-c4ccnc5[nH]nc(N[C@@H]6CCCNC6)c45)cc3)CC2)no1 [Example 70]", "> 10000 nM"),
    ("CN(C)C/C=C/C(=O)N[C@@H]1CCN(c2n[nH]c3nccc(-c4ccc(CNC(=O)c5cc(C(C)(C)C)on5)c(F)c4)c23)C1 [Example 309]", "1070 nM"),
    ("CC(C)(C)c1cc(C(=O)NCc2ccc(-c3ccnc4[nH]nc(N[C@@H]5CCNC5)c34)cc2F)no1 [Example 63]", "7860 nM"),
    ("C[C@H]1CC[C@@H](Nc2n[nH]c3nccc(-c4ccc(CNC(=O)c5nc6c(s5)CCCC6)c(F)c4)c23)CN1C(=O)N(C)C [Example 415]", "2150 nM"),
    ("CC(C)(C)c1nc(C(=O)NCc2ccc(-c3ccnc4[nH]nc(N[C@@H]5CCNC5)c34)c(F)c2)no1 [Example 129]", "> 10000 nM"),
    ("CC(C)(C)c1noc(C(=O)NC2(c3ccc(-c4ccnc5[nH]nc(N[C@@H]6CCNC6)c45)cc3)CC2)n1 [Example 71]", "> 10000 nM"),
    ("C=CC(=O)N1CCC[C@@H](Nc2n[nH]c3nccc(-c4ccc(CNC(=O)c5cc(CC(C)C)on5)c(F)c4)c23)[C@H]1C [Example 293]", "59.4 nM"),
    ("CN(C)C(=O)N1CC[C@H](Nc2n[nH]c3nccc(-c4ccc(CNC(=O)c5noc(C(C)(C)C)n5)c(F)c4)c23)C1 [Example 113]", "1710 nM"),
    ("C[C@H]1CC[C@@H](Nc2n[nH]c3nccc(-c4ccc(CNC(=O)c5noc(C(C)(C)C)n5)cc4)c23)CN1C(=O)N(C)C [Example 256]", "3590 nM"),
    ("CN1CC[C@H](Nc2n[nH]c3nccc(-c4ccc(CNC(=O)c5nc(C(C)(C)C)no5)c(F)c4)c23)C1 [Example 166]", "> 10000 nM"),
    ("C=CC(=O)N1CCC[C@@H](Nc2n[nH]c3nccc(-c4ccc(CNC(=O)c5cc(CC)on5)c(F)c4)c23)[C@H]1C [Example 304]", "15.9 nM"),
    ("C[C@H](NC(=O)c1ccc(C(C)(C)C)cc1)c1ccc(-c2ccnc3[nH]nc(N[C@@H]4CCNC4)c23)cc1 [Example 91]", "> 10000 nM"),
    ("CNC1CCN(c2n[nH]c3nccc(-c4ccc(CNC(=O)c5nc(C(C)(C)C)no5)c(F)c4)c23)C1 (centres unmarked) [Example 333]", "4360 nM"),
    ("C=CC(=O)N1CCC[C@@H](Nc2n[nH]c3nccc(-c4ccc(CNC(=O)c5cc(C(C)C)on5)c(F)c4)c23)[C@H]1C [Example 173]", "9 nM"),
    ("C=CC(=O)N[C@@H]1CCN(c2n[nH]c3nccc(-c4ccc(CNC(=O)c5nc6ccccc6o5)c(F)c4)c23)C1 [Example 395]", "52.6 nM"),
    ("C[C@@H](NC(=O)c1nc(C(C)(C)C)no1)c1ccc(-c2ccnc3[nH]nc(N4CCS(=O)(=O)CC4)c23)cc1 [Example 220]", "8960 nM"),
    ("C[C@@H]1[C@H](Nc2n[nH]c3nccc(-c4ccc(CNC(=O)c5noc(C(C)(C)C)n5)c(F)c4)c23)CCCN1C(=O)N(C)C [Example 125]", "> 10000 nM"),
    ("C=CC(=O)N1CC[C@@H](Nc2n[nH]c3nccc(-c4ccc(CNC(=O)c5cn6ccccc6n5)c(F)c4)c23)C1 [Example 377]", "671 nM"),
    ("CCNC(=O)N1C[C@H](Nc2n[nH]c3nccc(-c4ccc(CNC(=O)c5nc(C(C)(C)C)no5)c(F)c4)c23)CC[C@@H]1C [Example 209]", "905 nM"),
    ("C=CC(=O)N[C@@H]1CC[C@H](C)N(c2n[nH]c3nccc(-c4ccc(CNC(=O)c5cc(C(C)(C)C)on5)c(F)c4)c23)C1 [Example 323]", "734 nM"),
    ("C=CC(=O)N1CC[C@@H](Nc2n[nH]c3nccc(-c4ccc(C5(NC(=O)c6noc(C(C)(C)C)n6)CC5)cc4)c23)C1 [Compound 4]", "103 nM"),
    ("CC(C)(C)c1nc(C(=O)NCc2ccc(-c3ccnc4[nH]nc(O[C@@H]5CCN(C=O)C5)c34)cc2F)no1 [Example 273]", "1090 nM"),
]
